The measurements presented in this section are drawn from patent US11672959B2.

assay: tissue MF concentration after balloon expansion in sheep frontal sinus ostia; details: sheep, frontal sinus ostia tissue, 3000 μg, Average 30 day tissue MF Concentration in Sinus Ostia; 60.4% drug crystals; crystal size 91.1 μm; 30 days
Quantity Name: concentration at 30 days

Query: Tell us which concentration at 30 days value is on record for C[C@@H]1C[C@H]2[C@@H]3CCC4=CC(=O)C=C[C@]4(C)[C@@]3(Cl)[C@@H](O)C[C@]2(C)[C@@]1(OC(=O)c1ccco1)C(=O)CCl [MF, mometasone furoate]
Reply: 100 ng/g

----------
experiment: tissue MF concentration after balloon expansion in sheep frontal sinus ostia; conditions: sheep, frontal sinus ostia tissue, 3000 μg, Average 30 day tissue MF Concentration in Sinus Ostia; 67.4% drug crystals; crystal size 132.6 μm; 30 days
Quantity Name: concentration at 30 days (ng/g)
Please state the figure in ng/g; there is no need to write the unit.

Query: Read off the recorded concentration at 30 days for C[C@@H]1C[C@H]2[C@@H]3CCC4=CC(=O)C=C[C@]4(C)[C@@]3(Cl)[C@@H](O)C[C@]2(C)[C@@]1(OC(=O)c1ccco1)C(=O)CCl [MF, mometasone furoate]
Reply: 2000

----------
assay: tissue MF concentration after balloon expansion in sheep frontal sinus ostia; settings: sheep, frontal sinus ostia tissue, 3000 μg, Average Tissue MF Concentrations, Frontal Sinus Ostia, MF Dose 3000 μg; Study Arm 1, 2; 14 days
Quantity Name: concentration at 14 days (ng/g)
Kindly provide the numeric value in ng/g only, without the unit symbol.

Query: Determine from records and report concentration at 14 days for C[C@@H]1C[C@H]2[C@@H]3CCC4=CC(=O)C=C[C@]4(C)[C@@]3(Cl)[C@@H](O)C[C@]2(C)[C@@]1(OC(=O)c1ccco1)C(=O)CCl [MF, mometasone furoate]
Reply: 1250

----------
assay: tissue MF concentration after balloon expansion in sheep frontal sinus ostia; settings: sheep, nasal passage tissue, 3000 μg, Average Tissue MF Concentrations, Nasal Passage, MF Dose 3000 μg; Study Arm 1, 2; 7 days
Quantity Name: concentration at 7 days (ng/g)
Give just the number in ng/g; leave the unit off.

Query: Consider the compound C[C@@H]1C[C@H]2[C@@H]3CCC4=CC(=O)C=C[C@]4(C)[C@@]3(Cl)[C@@H](O)C[C@]2(C)[C@@]1(OC(=O)c1ccco1)C(=O)CCl [MF, mometasone furoate] and give its recorded concentration at 7 days.
Reply: 60

----------
Test: tissue concentration of mometasone furoate after balloon expansion in Eustachian tubes (LCMS)
Assay type: in vivo, domestic sheep
Conditions: sheep; Eustachian tube mucosa; 1500 μg balloon expanded to 12 atm; 7 days; read-out: maximum mometasone furoate tissue concentration
Description: The Eustachian tubes of eight domestic sheep were accessed transnasally using balloon catheters having drug layers containing 1500 μg of mometasone furoate. The balloon catheters were made as described in Example 1. […] Mometasone furoate concentration was then quantified using liquid chromatography mass spectrometry (LCMS).
Quantity Name: concentration at 7 days (ng/g)
The figure you give is taken to be in ng/g; do not add the unit.

Query: Dear colleague, please send me the reported concentration at 7 days for C[C@@H]1C[C@H]2[C@@H]3CCC4=CC(=O)C=C[C@]4(C)[C@@]3(Cl)[C@@H](O)C[C@]2(C)[C@@]1(OC(=O)c1ccco1)C(=O)CCl [MF, mometasone furoate] when you can.
Reply: 47000

----------
experiment: tissue MF concentration after balloon expansion in sheep frontal sinus ostia; settings: sheep, frontal sinus ostia tissue, 1500 μg, Average 30 day tissue MF Concentration in Sinus Ostia; 36.4% drug crystals; crystal size 78.7 μm; 30 days
Quantity Name: concentration at 30 days

Query: Given the compound C[C@@H]1C[C@H]2[C@@H]3CCC4=CC(=O)C=C[C@]4(C)[C@@]3(Cl)[C@@H](O)C[C@]2(C)[C@@]1(OC(=O)c1ccco1)C(=O)CCl [MF, mometasone furoate] , write its reported concentration at 30 days.
Reply: 5000 ng/g

----------
assay: tissue MF concentration after balloon expansion in sheep frontal sinus ostia; details: sheep, frontal sinus ostia tissue, 3000 μg, Average Tissue MF Concentrations, Frontal Sinus Ostia, MF Dose 3000 μg; Study Arm 1, 2; 30 days
Quantity Name: concentration at 30 days (ng/g)
API: value field is a number in ng/g; no unit string.

Query: Determine its reported concentration at 30 days: C[C@@H]1C[C@H]2[C@@H]3CCC4=CC(=O)C=C[C@]4(C)[C@@]3(Cl)[C@@H](O)C[C@]2(C)[C@@]1(OC(=O)c1ccco1)C(=O)CCl [MF, mometasone furoate]
Reply: 100

----------
assay: in vivo; conditions: sheep, in vivo, 30 day tissue concentrations (in sheep frontal sinus ostia)
Quantity Name: concentration at 30 days

Query: Using known records, supply concentration at 30 days for C[C@@H]1C[C@H]2[C@@H]3CCC4=CC(=O)C=C[C@]4(C)[C@@]3(Cl)[C@@H](O)C[C@]2(C)[C@@]1(OC(=O)c1ccco1)C(=O)CCl [MF, mometasone furoate]
Reply: ≥ 100 ng/g

----------
experiment: tissue MF concentration after balloon expansion in sheep frontal sinus ostia; settings: sheep, nasal passage tissue, 3000 μg, Average Tissue MF Concentrations, Nasal Passage, MF Dose 3000 μg; Study Arm 1, 2; 30 days
Quantity Name: concentration at 30 days (ng/g)
Number in ng/g, nothing else.

Query: Retrieve concentration at 30 days measured for C[C@@H]1C[C@H]2[C@@H]3CCC4=CC(=O)C=C[C@]4(C)[C@@]3(Cl)[C@@H](O)C[C@]2(C)[C@@]1(OC(=O)c1ccco1)C(=O)CCl [MF, mometasone furoate] and print it.
Reply: 1380

----------
assay: tissue MF concentration after balloon expansion in sheep frontal sinus ostia; conditions: sheep, frontal sinus ostia tissue, 1500 μg, mometasone furoate concentrations in tissue at 30 days, crystals sized less than 80 μm; less than 60% of the drug layer containing drug crystals
Quantity Name: concentration at 30 days

Query: State its concentration at 30 days: C[C@@H]1C[C@H]2[C@@H]3CCC4=CC(=O)C=C[C@]4(C)[C@@]3(Cl)[C@@H](O)C[C@]2(C)[C@@]1(OC(=O)c1ccco1)C(=O)CCl [MF, mometasone furoate]
Reply: ~5000 ng/g

----------
test: tissue MF concentration after balloon expansion in sheep frontal sinus ostia; conditions: sheep, nasal passage tissue, 3000 μg, Average Tissue MF Concentrations, Nasal Passage, MF Dose 3000 μg; Study Arm 1, 2; Approx. 1 hour after inflation
Quantity Name: concentration at 1 hour
Write the numeric value and follow it with the unit.

Query: Find the measured concentration at 1 hour of C[C@@H]1C[C@H]2[C@@H]3CCC4=CC(=O)C=C[C@]4(C)[C@@]3(Cl)[C@@H](O)C[C@]2(C)[C@@]1(OC(=O)c1ccco1)C(=O)CCl [MF, mometasone furoate] and report it.
Reply: 4730 ng/g

----------
Experiment: tissue MF concentration after balloon expansion in sheep frontal sinus ostia
Conditions: sheep, nasal passage tissue, 3000 μg, Average Tissue MF Concentrations, Nasal Passage, MF Dose 3000 μg; Study Arm 1, 2; 14 days
Experimental: The amount of mometasone furoate transferred to the ostia (total MF released) was measured after inflation of balloons having a drug layer including the listed dose of mometasone furoate drug crystals and poly(ethylene glycol) and polysorbate as the excipients. In this Example, drug layered balloons were made according to Example 1 and used to dilate sheep frontal ostia.
Quantity Name: concentration at 14 days (ng/g)
Respond with the bare value in ng/g.

Query: Tell us which concentration at 14 days value is on record for C[C@@H]1C[C@H]2[C@@H]3CCC4=CC(=O)C=C[C@]4(C)[C@@]3(Cl)[C@@H](O)C[C@]2(C)[C@@]1(OC(=O)c1ccco1)C(=O)CCl [MF, mometasone furoate]
Reply: 20

----------
assay: tissue MF concentration after balloon expansion in sheep frontal sinus ostia; conditions: sheep, frontal sinus ostia tissue, 1500 μg, average tissue MF concentrations for the frontal sinus ostia, MF dose 1500 μg; 30 days; compared with therapeutic level
Quantity Name: concentration at 30 days

Query: Recall and state the measured concentration at 30 days for C[C@@H]1C[C@H]2[C@@H]3CCC4=CC(=O)C=C[C@]4(C)[C@@]3(Cl)[C@@H](O)C[C@]2(C)[C@@]1(OC(=O)c1ccco1)C(=O)CCl [MF, mometasone furoate] .
Reply: > 100 ng/g
